# credit: paper doi:10.1101/2023.10.24.563883v2

assayed.system: LPHN2 (Homo sapiens)
Sequence (O95490 26-1459): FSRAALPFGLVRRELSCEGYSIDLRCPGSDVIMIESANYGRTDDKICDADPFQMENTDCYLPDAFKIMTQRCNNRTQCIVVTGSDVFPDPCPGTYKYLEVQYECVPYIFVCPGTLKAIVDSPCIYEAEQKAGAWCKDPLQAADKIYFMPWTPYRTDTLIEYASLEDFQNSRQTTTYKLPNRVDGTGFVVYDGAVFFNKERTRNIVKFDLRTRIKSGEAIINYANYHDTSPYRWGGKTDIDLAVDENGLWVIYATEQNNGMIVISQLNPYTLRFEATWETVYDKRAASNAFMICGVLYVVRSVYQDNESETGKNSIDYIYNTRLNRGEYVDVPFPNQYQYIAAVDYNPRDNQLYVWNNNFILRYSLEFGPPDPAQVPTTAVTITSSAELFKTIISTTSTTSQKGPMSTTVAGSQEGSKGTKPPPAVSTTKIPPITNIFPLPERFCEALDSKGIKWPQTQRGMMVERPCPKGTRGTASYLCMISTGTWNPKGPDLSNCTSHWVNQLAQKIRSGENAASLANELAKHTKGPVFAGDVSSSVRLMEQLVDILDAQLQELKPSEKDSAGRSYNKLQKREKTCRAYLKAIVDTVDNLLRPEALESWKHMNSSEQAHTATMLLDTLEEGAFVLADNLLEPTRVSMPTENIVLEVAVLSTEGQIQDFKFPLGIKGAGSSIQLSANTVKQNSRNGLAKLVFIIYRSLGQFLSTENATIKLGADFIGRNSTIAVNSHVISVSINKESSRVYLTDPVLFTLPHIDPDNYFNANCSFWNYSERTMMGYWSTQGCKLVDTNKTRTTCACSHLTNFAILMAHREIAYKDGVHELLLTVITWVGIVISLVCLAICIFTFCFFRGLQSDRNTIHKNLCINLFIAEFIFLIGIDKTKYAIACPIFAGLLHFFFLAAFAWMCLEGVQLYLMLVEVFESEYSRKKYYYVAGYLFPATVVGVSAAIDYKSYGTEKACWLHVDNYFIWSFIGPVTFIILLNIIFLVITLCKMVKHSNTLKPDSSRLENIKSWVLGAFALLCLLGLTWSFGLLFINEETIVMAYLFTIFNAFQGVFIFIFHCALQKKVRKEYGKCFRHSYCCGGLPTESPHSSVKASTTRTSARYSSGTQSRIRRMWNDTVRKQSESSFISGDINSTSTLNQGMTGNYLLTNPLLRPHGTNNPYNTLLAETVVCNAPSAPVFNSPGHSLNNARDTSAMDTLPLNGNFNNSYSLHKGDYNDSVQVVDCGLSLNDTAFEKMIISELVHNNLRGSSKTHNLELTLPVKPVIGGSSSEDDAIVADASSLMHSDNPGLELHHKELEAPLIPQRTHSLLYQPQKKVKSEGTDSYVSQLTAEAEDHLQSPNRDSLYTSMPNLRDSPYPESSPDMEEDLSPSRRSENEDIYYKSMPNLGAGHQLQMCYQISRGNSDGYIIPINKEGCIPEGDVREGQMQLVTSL
assay: BRET G protein

>  <compound>
COc1ccc(OC)c(NC2=NC(=O)CC(C(=O)Nc3cc(C(F)(F)F)ccc3Cl)S2)c1 (stereo not shown)

>  <EC50 [nM]>
39.9

$$$$
